Source listed as patent US20040242591A1.

tested on: MRSA 33; experiment: MIC by agar incorporation method, MRSA 33; type: cell-based, Methicillin Resistant Staphylococcus aureus; set-up: unit not given here; settings: Mueller Hinton agar, 10^4 CFU/spot, 24 hours
Attribute Measured: In Vitro (MIC) MRSA 33
# output: bare number, no unit

State the recorded In Vitro (MIC) MRSA 33 for this entry: CC(=O)NC[C@H]1CN(c2ccc(N3CCN(Cc4cc(Br)c([N+](=O)[O-])o4)CC3)c(F)c2)C(=O)O1 [Compound No. 25]
2

Next: CC(=O)NC[C@H]1CN(c2ccc(N3CCN(C(C)c4ccc([N+](=O)[O-])s4)CC3)c(F)c2)C(=O)O1 (some centres unmarked) [Compound No. 100]
0.5
